Origin of the recorded values: PubChem BioAssay

# ASSAYED_SYSTEM: Dual specificity protein phosphatase 6 (Homo sapiens)
# METHOD_NOTES: DUSP6 inhibitors restoring Erk phosphorylation by chemical complementation, primary imaging in DUSP6-transfected HeLa (AID 609);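 note: phospho-Erk level distribution per well compared with pooled transfected vehicle control wells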
# PROTOCOL_CONDITIONS: HeLa MKP-3 transfected, phospho-Erk imaging KS statistic; at 10 µM; hits give high values; cells stimulated with TPA for 15 min
Consider the following compounds and their measured inhibition readings.
Please give a number only; it is taken to be in %.

# annotated cases, reported inhibition shown
INSERT INTO results (compound, metric, observed_measurement) VALUES
  ('OC(CNCCCN1CCCCC1)COc1ccccc1 (stereo unspecified)', 'inhibition', 17),
  ('CC(=O)OCC(=O)[C@@]1(O)[C@H](C)C[C@H]2[C@@H]3CCC4=CC(=O)C=C[C@]4(C)[C@@]3(F)[C@@H](O)C[C@@]21C', 'inhibition', -4.44);

## Input Tell me the measured inhibition of O=c1c(-c2ccc3c(c2)OCCO3)c(C(F)(F)F)oc2cc(O)cc(O)c12 , please.
## Output 1.9e-07

## Input Here is the next compound: COc1ccc2c(C)nc(Nc3nc(C)cc(C)n3)nc2c1
## Output -5.95

## Input Here is the next compound: C(=N\n1cnnc1)/c1cccnc1
## Output 1.42

## Input Here is the next compound: Cc1ccccc1NC(=O)NCCc1nc2ccccc2[nH]1
## Output -11
